The reported numbers originate from patent US20240317847A1.

# target of assay: T1, human IL-11 (human, UniProt P20809 22-199)
# T1 sequence: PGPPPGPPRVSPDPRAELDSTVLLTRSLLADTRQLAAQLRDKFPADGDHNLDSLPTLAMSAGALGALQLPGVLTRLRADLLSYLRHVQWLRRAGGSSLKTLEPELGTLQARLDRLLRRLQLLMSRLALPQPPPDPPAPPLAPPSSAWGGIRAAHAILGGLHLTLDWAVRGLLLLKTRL
# assay procedure: cell-based or functional assay
As shown below, each of these binders has a reported IC50, RGA 2 value.
assay endpoint: IC50, RGA 2 (nM)

| binder | operator symbol | measured number |
| --- | --- | --- |
| TPP-31285 (antibody, IgG4, V domains shown, hIgG4 SPLE, lambda) VH: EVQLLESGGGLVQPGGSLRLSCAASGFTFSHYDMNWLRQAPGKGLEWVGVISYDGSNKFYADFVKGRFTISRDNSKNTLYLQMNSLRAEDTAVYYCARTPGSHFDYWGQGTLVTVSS VL: QSVLTQPPSASGTPGQRVTISCSGSSSNIGNNAVNWYQQLPGTAPKLLIYYDDLLPSGVPDRFSGSKSGTSASLAISGLRSEDEADYYCAAWDDSLNGVVFGGGTKLTVL | = | 16 |
| TPP-31310 (antibody, IgG4, V domains shown) VH: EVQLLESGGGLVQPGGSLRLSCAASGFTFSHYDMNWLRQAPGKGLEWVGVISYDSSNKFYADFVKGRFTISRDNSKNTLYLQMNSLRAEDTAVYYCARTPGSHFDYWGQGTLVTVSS VL: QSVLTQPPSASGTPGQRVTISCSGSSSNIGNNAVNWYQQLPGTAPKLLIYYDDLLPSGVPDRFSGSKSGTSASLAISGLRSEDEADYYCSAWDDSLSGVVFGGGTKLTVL | > | 500 |
